Source: patent US20250214996A1

# method summary: Pharmacokinetic study in Beagle dogs, oral capsule
# Type: in vivo
# experimental context: both sexes, dog, plasma, dose 5.34 mg/kg (Group 1), 7.4 mg/kg (Group 2), up to 144 hours
recorded metric: AUC(0-t) (ng·h/mL)
State just the number; it will be interpreted in ng·h/mL.

[ask] Using known records, supply AUC(0-t) for CCCN1CC(Oc2ccc([C@@H]3c4[nH]c5ccccc5c4C[C@@H](C)N3CC(C)(C)F)cc2)C1
[reply] 7460

###

# method summary: Kinetic solubility estimate, solvent aliquot addition, visual observation
# Format: physicochemical
# experimental context: organic solvent or mixture, thermodynamic from solid; amorphous Compound 1; IPA; read-out: Solubility
recorded metric: Solubility (mg/mL)
Dear colleague, please return just the value in mg/mL, with no unit written.

[ask] Output measured Solubility for this item: CCCN1CC(Oc2ccc([C@@H]3c4[nH]c5ccccc5c4C[C@@H](C)N3CC(C)(C)F)cc2)C1
[reply] 82

###

# method summary: Pharmacokinetic study in Beagle dogs, oral capsule
# Format: in vivo
# experimental context: both sexes, dog, dose 5.34 mg/kg (Group 1), 7.4 mg/kg (Group 2), plasma
recorded metric: MRT last
# output: numeric value plus its unit

[ask] Please report MRT last for the following compound: CCCN1CC(Oc2ccc([C@@H]3c4[nH]c5ccccc5c4C[C@@H](C)N3CC(C)(C)F)cc2)C1
[reply] 37.8 h

###

# method summary: Solubility by dynamic method
# Assay type: physicochemical
# experimental context: organic solvent or mixture, thermodynamic from solid; Dynamic; IPA; 25° C.
recorded metric: solubility at 15 min (mg/mL)
Report only the number, with the unit mg/mL understood.

[ask] Find the measured solubility at 15 min of O=C(O)/C=C/C(=O)O and report it.
[reply] 34.3

###

# method summary: Pharmacokinetic study in Beagle dogs, oral capsule
# Format: in vivo
# experimental context: both sexes, dog, dose 5.34 mg/kg (Group 1), 7.4 mg/kg (Group 2), plasma
# Experimental: Compound 1 […] in two different forms was administered orally (PO) to male and female Beagle dogs. Blood was serially collected up to 144 hours post dose for determination of plasma pharmacokinetic analysis. Animals were healthy at the start of the study and were between 1 and 6.5 years of age. Initial body weights were recorded at the start of the study and general health observations were recorded at each blood collection time point. Each Group contained 3 male and 1 female dog. […]
recorded metric: Cmax (ng/mL)
Report only the number, with the unit ng/mL understood.

[ask] Provide measured Cmax value, entry: CCCN1CC(Oc2ccc([C@@H]3c4[nH]c5ccccc5c4C[C@@H](C)N3CC(C)(C)F)cc2)C1 [Amorphous Compound 1]
[reply] 343

###

# method summary: Kinetic solubility estimate, solvent aliquot addition, visual observation
# Format: physicochemical
# experimental context: aqueous with cosolvent or surfactant or cyclodextrin, thermodynamic from solid; amorphous Compound 1; Dioxane/water (60/40); read-out: Solubility
recorded metric: Solubility

[ask] Recall and state the measured Solubility for CCCN1CC(Oc2ccc([C@@H]3c4[nH]c5ccccc5c4C[C@@H](C)N3CC(C)(C)F)cc2)C1 .
[reply] < 13 mg/mL

###

# method summary: Pharmacokinetic study in Beagle dogs, oral capsule
# Format: in vivo
# experimental context: both sexes, dog, dose 5.34 mg/kg (Group 1), 7.4 mg/kg (Group 2), plasma, read-out: tmax
recorded metric: tmax (h)
Numeric only. Scale: h

[ask] Query tmax for CCCN1CC(Oc2ccc([C@@H]3c4[nH]c5ccccc5c4C[C@@H](C)N3CC(C)(C)F)cc2)C1
[reply] 3.25
